All values here come from patent US20240116985A1.

- System: full-length beta-Catenin (Uniprot ID P35222) (Homo sapiens)
- Construct: 10 nM full-length beta-Catenin (Uniprot ID P35222)
- Sequence (P35222 whole entry): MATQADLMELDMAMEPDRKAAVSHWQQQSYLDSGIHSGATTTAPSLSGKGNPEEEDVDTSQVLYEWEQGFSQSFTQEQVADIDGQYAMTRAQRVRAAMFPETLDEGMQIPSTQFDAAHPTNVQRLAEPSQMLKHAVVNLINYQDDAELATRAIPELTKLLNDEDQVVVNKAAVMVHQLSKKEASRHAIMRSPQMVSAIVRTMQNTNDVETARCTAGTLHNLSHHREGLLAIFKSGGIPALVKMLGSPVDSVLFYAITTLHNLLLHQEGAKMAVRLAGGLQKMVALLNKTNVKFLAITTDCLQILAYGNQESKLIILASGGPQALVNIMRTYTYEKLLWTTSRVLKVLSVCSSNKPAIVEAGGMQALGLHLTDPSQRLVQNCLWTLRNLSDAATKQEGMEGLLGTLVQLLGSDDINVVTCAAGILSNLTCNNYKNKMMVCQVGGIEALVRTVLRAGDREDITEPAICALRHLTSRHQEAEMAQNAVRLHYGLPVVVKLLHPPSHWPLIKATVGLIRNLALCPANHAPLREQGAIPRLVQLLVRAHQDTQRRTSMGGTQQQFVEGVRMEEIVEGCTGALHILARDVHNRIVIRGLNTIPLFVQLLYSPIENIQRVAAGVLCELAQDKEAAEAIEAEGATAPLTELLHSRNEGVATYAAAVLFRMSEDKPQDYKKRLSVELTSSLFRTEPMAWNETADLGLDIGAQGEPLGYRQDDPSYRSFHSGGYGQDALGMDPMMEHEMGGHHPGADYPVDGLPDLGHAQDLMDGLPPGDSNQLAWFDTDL
- Test Summary: Fluorescence polarization IC50 (beta-catenin / 5FAM-TCF4 10-53 competition)
- Assay type: binding
- Test Conditions: fluorescence polarization; read-out: beta-Catenin FP IC50
Recorded IC50 for the following compounds

Compound	IC50, nM
CC(=O)N1CCC[C@]12CC=CCCCC1(CCCC=CCCCOC(=O)N3CC[C@@](C(=O)N[C@@H](Cc4ccsc4)C(=O)N[C@@H](Cc4csc5ccccc45)C(=O)N[C@H](CO)[C@@H](C)O)(C3)NC(=O)[C@H](CC(C)C)NC(=O)[C@H](Cc3ccccc3)NC(=O)[C@H](C)NC(=O)[C@H](C)NC(=O)[C@H](CC(=O)O)NC(=O)[C@H](CC(=O)O)NC1=O)NC(=O)[C@H](CC(C)(C)C)NC(=O)[C@H](CC(=O)O)NC2=O (stereo partly drawn)	45
CC(=O)N1CCC[C@]12CC=CCCCC1(CCCC=CCCCOC(=O)N3CC[C@@](C(=O)N[C@@H](Cc4ccsc4)C(=O)N[C@@H](Cc4ccc5c(c4)CCC5)C(=O)N[C@@H](CCC(N)=O)C(N)=O)(C3)NC(=O)[C@H](CC(C)C)NC(=O)[C@H](Cc3ccccc3)NC(=O)[C@H](C)NC(=O)[C@H](C)NC(=O)[C@H](Cc3cccc(C(=O)O)c3)NC(=O)[C@H](CC(=O)O)NC1=O)NC(=O)[C@H](CC(C)(C)C)NC(=O)[C@H](CC(=O)O)NC2=O (stereo partly drawn)	5
CC(=O)N1CCC[C@]12CC=CCCCC1(CCCC=CCCCOC(=O)N3CC[C@@](C(=O)N[C@@H](Cc4ccsc4)C(=O)N[C@@H](Cc4csc5ccccc45)C(=O)N[C@@H](CC(N)=O)C(N)=O)(C3)NC(=O)[C@H](CC(=O)N(C)C)NC(=O)[C@H](Cc3ccccc3)NC(=O)[C@H](C)NC(=O)C(C)(C)NC(=O)[C@H]([C@@H](C)O)NC(=O)[C@H](CC(N)=O)NC1=O)NC(=O)[C@H](CC(C)(C)C)NC(=O)[C@H](CC(=O)O)NC2=O (stereo partly drawn)	106
CC(=O)N1CCC[C@]12CC=CCCCC1(CCCC=CCCCOC(=O)N3CC[C@@](C(=O)N[C@@H](Cc4ccccc4Cl)C(=O)N[C@@H](Cc4csc5ccccc45)C(=O)N[C@@H](CCO)C(N)=O)(C3)NC(=O)[C@H](CO)NC(=O)[C@H](Cc3ccccc3)NC(=O)[C@H](C)NC(=O)[C@H](C)NC(=O)[C@H](CC(=O)O)NC(=O)[C@H](CC(=O)O)NC1=O)NC(=O)[C@H](Cc1ccccc1)NC(=O)[C@H](CC(=O)O)NC2=O (stereo partly drawn)	12
CC(=O)N1CCC[C@]12CC=CCCCC1(CCCC=CCCCOC(=O)N3CC[C@@](C(=O)N[C@@H](Cc4ccsc4)C(=O)N[C@@H](Cc4csc5ccccc45)C(=O)N[C@@H](CCC(N)=O)C(N)=O)(C3)NC(=O)[C@H](CC(C)C)NC(=O)[C@H](Cc3ccccc3)NC(=O)[C@H](C)NC(=O)[C@H](C)NC(=O)[C@H](CN3CCC[C@@H](C(=O)O)C3)NC(=O)[C@H](CC(=O)O)NC1=O)NC(=O)[C@H](CC(C)(C)C)NC(=O)[C@H](CC(=O)O)NC2=O (stereo partly drawn)	14
CC[C@H](C)[C@@H]1NC(=O)[C@H](CC(=O)O)NC(=O)[C@]2(CC=CCCCC3(CCCC=CCCCCCC[C@@](C)(C(=O)N[C@@H](Cc4ccsc4)C(=O)N[C@@H](Cc4csc5ccccc45)C(=O)N[C@@H](CCC(N)=O)C(N)=O)NC(=O)[C@H](CC(N)=O)NC(=O)[C@H](Cc4ccccc4)NC(=O)[C@H](C)NC(=O)[C@H](C)NC(=O)[C@H](CN(CC(=O)O)CC(F)(F)F)NC(=O)[C@H](CC(=O)O)NC3=O)NC1=O)CCCN2C(C)=O (stereo partly drawn) [I-700]	49
CC[C@H](C)[C@@H]1NC(=O)[C@H](CC(=O)O)NC(=O)[C@]2(CC=CCCCC3(CCCC=CCCCCCC[C@@](C)(C(=O)N[C@@H](Cc4ccccc4)C(=O)N[C@@H](Cc4csc5ccccc45)C(=O)N[C@@H](CCC(N)=O)C(N)=O)NC(=O)[C@H](CCC(N)=O)NC(=O)[C@H](Cc4cccs4)NC(=O)[C@H](C)NC(=O)[C@H](C)NC(=O)[C@H](CCC(=O)O)NC(=O)[C@H](CC(=O)O)NC3=O)NC1=O)CCCN2C(C)=O (stereo partly drawn)	34
CC(=O)N1CCC[C@]12CC=CCCCC1(CCCC=CCCCOC(=O)N3CC[C@@](C(=O)N[C@@H](Cc4ccsc4)C(=O)N[C@@H](Cc4csc5ccccc45)C(=O)N[C@H](C(N)=O)C(C)C)(C3)NC(=O)[C@H](CC(C)C)NC(=O)[C@H](Cc3ccccc3)NC(=O)[C@H](C)NC(=O)[C@H](CC(=O)N(C)C)NC(=O)[C@H](Cc3cccc(C(=O)O)c3)NC(=O)[C@H](CC(=O)O)NC1=O)NC(=O)[C@H](CC(C)(C)C)NC(=O)[C@H](CC(=O)O)NC2=O (stereo partly drawn)	16
CC(=O)N1CCC[C@]12CC=CCCCC1(CCCC=CCCCOC(=O)N3CC[C@@](C(=O)N[C@@H](Cc4ccsc4)C(=O)N[C@@H](Cc4csc5ccccc45)C(=O)N[C@@H](CCC(N)=O)C(=O)N[C@@H](CCCCNC(=O)C45CC6(C)CC(C)(CC(C)(C6)C4)C5)C(N)=O)(C3)NC(=O)[C@H](CC(C)C)NC(=O)[C@H](Cc3ccccc3)NC(=O)[C@H](C)NC(=O)[C@H](C)NC(=O)[C@H](CC(=O)O)NC(=O)[C@H](CC(=O)O)NC1=O)NC(=O)[C@H](CC(C)(C)C)NC(=O)[C@H](CC(=O)O)NC2=O (stereo partly drawn)	173
